- Test system: BT-549
- assay text: normalised viability (% of control), CellTiter-Blue; higher = more viable cells (about 100 = DMSO control)
- condition label: 10 nM; incubation time: 72 h
endpoint label: normalised viability (%)
Numeric only. Scale: %

The cases that follow already have their normalised viability on record.
line notation: CCS(=O)(=O)c1cccc(-c2cc(C(=O)NC3CCN(C)CC3)c(C)c3[nH]c4ncc(C)cc4c23)c1
measured target: BT-549
normalised viability, %: 114
//
line notation: Cn1cnc2c(F)c(Nc3ccc(Br)cc3F)c(C(=O)NOCCO)cc21
measured target: BT-549
normalised viability, %: 107
//
line notation: COc1ncc(-c2ccc3nccc(-c4ccnnc4)c3c2)cc1NS(=O)(=O)c1ccc(F)cc1F
measured target: BT-549
normalised viability, %: 95.9

Proceeding to the next compound to report its normalised viability.
Query: normalised viability; subject: CCOc1cc2ncc(C#N)c(Nc3ccc(OCc4ccccn4)c(Cl)c3)c2cc1NC(=O)/C=C/CN(C)C
101

* * *

- System: HCC1143
- assay text: normalised response (% of control), CellTiter-Glo; higher = more viable cells (100 = DMSO, 0 = benzethonium chloride kill control)
- condition label: incubation time: 72 h
Overview of reported normalised response across a group of compounds:
Please state the value followed by its unit.

As a guide, the following entries are already answered.
compound: O=c1[nH]cc(F)c(=O)[nH]1 [Fluorouracil] (10 nM)
normalised response: 121%
--
compound: C[C@@H]1C=C2C(=O)O[C@@H]3CC[C@H](C1)[C@]23O [Galiellalactone] (5000 nM)
normalised response: 101%
--
compound: COC1=C2C[C@@H](C)C[C@H](OC)[C@H](O)[C@@H](C)/C=C(\C)[C@H](OC(N)=O)[C@@H](OC)/C=C\C=C(/C)C(=O)NC(=CC1=O)C2=O [Geldanamycin] (1 nM)
normalised response: 107%

Dear colleague, I am looking for the recorded normalised response of the following compound: FC(F)c1nc2ccccc2n1-c1nc(N2CCOCC2)nc(N2CCOCC2)n1 [ZSTK474] (1 nM)
96.8%

* * *

- System: MDA-MB-436
- condition label: 72 h
endpoint label: EC50, CellTiter-Glo (nM)
Please reply with the bare figure in nM and do not write the unit itself.

Completed entries (count: 2):
compound: CN(c1ccccc1CNc1nc(Nc2ccc3c(c2)CC(=O)N3)ncc1C(F)(F)F)S(C)(=O)=O
EC50, CellTiter-Glo, nM: 5620
--
compound: CCS(=O)(=O)c1cccc(-c2cc(C(=O)NC3CCN(C)CC3)c(C)c3[nH]c4ncc(C)cc4c23)c1 [TAK-901]
EC50, CellTiter-Glo, nM: 299

Now, please, on to the next compound.
Hello, I am looking for reported EC50, CellTiter-Glo with MDA-MB-436 for C#Cc1cccc(Nc2ncnc3cc(OC)c(OCCCCCCC(=O)NO)cc23)c1 [CUDC-101] . Could you help?
1640

* * *

- Test system: CAL-85-1
- assay text: normalised response (% of control), CellTox Green; higher = less cell death (100 = DMSO, 0 = benzethonium chloride kill control)
- condition label: incubation time: 72 h
Here the recorded normalised response is given for each entry.
Respond numerically; units are % and should not be typed.

compound: O=C(c1ccc(OCCN2CCCCC2)cc1)c1c(-c2ccc(O)cc2)sc2cc(O)ccc12 [Raloxifene] (1000 nM)
normalised response [%]: 98.6

compound: O=c1[nH]c(=O)n([C@H]2C[C@H](O)[C@@H](CO)O2)cc1F [Floxuridine] (1000 nM)
normalised response [%]: 89.6

Any idea what its normalised response is? The compound is FC(F)c1nc2ccccc2n1-c1nc(N2CCOCC2)nc(N2CCOCC2)n1 [ZSTK474] (1000 nM)
101

Param item = COc1cc(Nc2ncc(F)c(Nc3ccc4c(n3)NC(=O)C(C)(C)O4)n2)cc(OC)c1OC [Tamatinib] (10000 nM) ; retrieve measured normalised response.
64.4

What normalised response value was documented for this compound, CC(=O)O[C@H]1C(=O)[C@@]2(C)[C@H]([C@H](OC(=O)c3ccccc3)[C@]3(O)C[C@H](OC(=O)[C@H](O)[C@@H](NC(=O)c4ccccc4)c4ccccc4)C(C)=C1C3(C)C)[C@]1(OC(C)=O)CO[C@@H]1C[C@@H]2O [Paclitaxel] (100 nM) ?
21.5

# lookup: normalised response of CC(C)C[C@H](NC(=O)[C@H](Cc1ccccc1)NC(=O)c1cnccn1)B(O)O [Bortezomib] (1000 nM)
-48
